Origin of measurements: patent US10442807B2

# Tested on: blackgrass (Alopecurus myosuroides)
# assay_procedure: Test A postemergence application, visual injury rating
# Format: in vivo
# test_parameters: 500 g ai/ha, approx. 10 d, 0 = no effect, 100 = complete control
recorded_endpoint: Blackgrass plant response rating (0 to 100 scale)
Lab note: jot down the number only; don't add units.

**Q:** Give Blackgrass plant response rating (0 to 100 scale) for this entry on blackgrass (Alopecurus myosuroides): Cc1nnc2n1CC(c1ccc(Cl)cc1)C2C(=O)Nc1ccccc1F (stereo not shown) [Compound 21]
**A:** 20

**Q:** Give Blackgrass plant response rating (0 to 100 scale) for this entry on blackgrass (Alopecurus myosuroides): O=C(Nc1cccc(F)c1F)C1c2nncn2CC1c1ccc(C(F)(F)F)cc1 (stereo not shown) [Compound 12]
**A:** 60

**Q:** Give Blackgrass plant response rating (0 to 100 scale) for this entry on blackgrass (Alopecurus myosuroides): CCCc1nnc2n1CC(c1ccc(C(F)(F)F)cc1)C2C(=O)Nc1cccc(F)c1F (stereo not shown) [Compound 17]
**A:** 20

**Q:** Give Blackgrass plant response rating (0 to 100 scale) for this entry on blackgrass (Alopecurus myosuroides): O=C(Nc1ccccc1F)C1c2nncn2CC1c1cccc(C(F)(F)F)c1 (stereo not shown) [Compound 2]
**A:** 70
